Numbers sourced from patent US20250161476A1.

- measured.target: human GLP1R (Homo sapiens (Human))
- Sequence (P43220 24-463): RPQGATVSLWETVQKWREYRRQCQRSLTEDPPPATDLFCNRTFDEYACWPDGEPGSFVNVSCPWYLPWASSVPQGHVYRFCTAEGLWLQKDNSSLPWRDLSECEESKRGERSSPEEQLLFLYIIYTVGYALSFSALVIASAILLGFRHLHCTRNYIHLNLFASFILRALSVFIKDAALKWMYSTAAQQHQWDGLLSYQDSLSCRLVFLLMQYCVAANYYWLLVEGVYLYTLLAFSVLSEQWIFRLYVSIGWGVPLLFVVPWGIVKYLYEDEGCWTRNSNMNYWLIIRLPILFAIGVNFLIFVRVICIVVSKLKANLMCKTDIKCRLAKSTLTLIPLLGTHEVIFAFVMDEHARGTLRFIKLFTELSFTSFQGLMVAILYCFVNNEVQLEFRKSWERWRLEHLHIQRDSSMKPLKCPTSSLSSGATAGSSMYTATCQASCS
- assay.explanation: cAMP responsive luciferase reporter assay, HEK293/CRE-Luc/hGLP1R cells
- Format: cell-based
- condition.context: relative to P8 of the same experiment
Where a SMILES comes first, the peptide text is derived from it. [ ]: non-standard residue; d: D form. The star is where a group is joined. Bip(2'-Et,4'-O(CH2)4NH2) = CCc1cc(OCCCCN)ccc1-c1ccc(C[C@H](N)C(=O)O)cc1; Malonyl(2,2-Me2,histaminyl) = CC(C)(C(=O)NCCc1cnc[nH]1)C(=O)*; Nva(5-(3,5-Me2Ph)) = Cc1cc(C)cc(CCC[C@H](N)C(=O)O)c1; Ala(1H-tetrazol-5-yl) = N[C@@H](Cc1nnn[nH]1)C(=O)O; αMePhe(2-F) = C[C@](N)(Cc1ccccc1F)C(=O)O; NHPh = c1ccc(N*)cc1
Please provide measured HEK293/CRE-LUC/hGLP1R Relative Signal:Noise (% P8) for the entries that follow.
Give the quantity in %, number only.

Prompt: Tell me HEK293/CRE-LUC/hGLP1R Relative Signal:Noise (% P8) of CCc1cc(OCCCCN)ccc1-c1ccc(C[C@H](NC(=O)[C@H](CC(=O)O)NC(=O)[C@H](CO)NC(=O)[C@@H](NC(=O)[C@](C)(Cc2ccccc2F)NC(=O)[C@@H](NC(=O)CNC(=O)[C@H](Cc2nn[nH]n2)NC(=O)C(C)(C)C(=O)NCCc2cnc[nH]2)[C@@H](C)O)[C@@H](C)O)C(=O)N[C@@H](CCCc2cc(C)cc(C)c2)C(=O)Nc2ccccc2)cc1 [P23] ({Malonyl(2,2-Me2,histaminyl)}-[Ala(1H-tetrazol-5-yl)]GT[αMePhe(2-F)]TSD[Bip(2'-Et,4'-O(CH2)4NH2)][Nva(5-(3,5-Me2Ph))]-NHPh) when tested on human GLP1R (Homo sapiens (Human)).
Completion: 86.9

Prompt: Tell me HEK293/CRE-LUC/hGLP1R Relative Signal:Noise (% P8) of "CCc1cc(OCCCCN)ccc1-c1ccc(C[C@H](NC(=O)[C@H](CC(=O)O)NC(=O)[C@H](CO)NC(=O)[C@@H](NC(=O)[C@](C)(Cc2ccccc2F)NC(=O)[C@@H](NC(=O)CNC(=O)[C@H](CCC(N)=O)NC(=O)C(C)(C)C(=O)NCCc2cnc[nH]2)[C@@H](C)O)[C@@H](C)O)C(=O)N[C@@H](CCCc2cc(C)cc(C)c2)C(N)=O)cc1" when tested on human GLP1R (Homo sapiens (Human)).
Completion: 89.5
